# method summary: Pharmacokinetic profiles in rats
# Format: in vivo
# run parameters: rat, plasma, iv dosing, 1 mg/kg
measurement type: half-life (h)

- smiles record: "COc1ncc(-c2ccn3ncc(C#CC(C)(C)O)c3n2)cc1NS(=O)(=O)c1ccc(F)cc1F"
  units symbol: "h"
  measurement: 11
- smiles record: "COc1ncc(-c2ccn3ncc(C#CC(C)(C)O)c3c2)cc1NS(=O)(=O)c1ccc(F)cc1F"
  units symbol: "h"
  measurement: 10.8
- smiles record: "CC#Cc1cnn2ccc(-c3cnc(OC)c(NS(=O)(=O)c4ccc(F)cc4F)c3)nc12"
  units symbol: "h"
  measurement: 3.94
- smiles record: "COc1ncc(-c2ccn3ncc(C#N)c3c2)cc1NS(=O)(=O)CC(F)(F)F"
  units symbol: "h"
  measurement: 2.74

====

# method summary: Pharmacokinetic profiles in mice
# Format: in vivo
# run parameters: plasma; Mouse, iv dosing, 1 mg/kg; read-out: Vss

- smiles record: "COc1ncc(-c2ccn3ncc(C#CCO)c3c2)cc1NS(=O)(=O)c1ccc(F)cc1F"
  units symbol: "L/kg"
  Vd: 0.18
- smiles record: "COc1ncc(-c2ccn3ncc(C#N)c3c2)cc1NS(=O)(=O)c1ccc(F)cc1F"
  units symbol: "L/kg"
  Vd: 0.13

====

# method summary: Pharmacokinetic profiles in rats
# Assay type: in vivo
# run parameters: rat, plasma, iv dosing, 1 mg/kg, read-out: Vss
Overview of reported Vd across a group of compounds:

- smiles record: "COc1ncc(-c2ccn3ncc(C#N)c3c2)cc1NS(=O)(=O)CC(F)(F)F"
  units symbol: "L/kg"
  Vd: 1.72
- smiles record: "COc1ncc(-c2ccn3ncc(C#CC(C)(C)O)c3n2)cc1NS(=O)(=O)c1ccc(F)cc1F"
  units symbol: "L/kg"
  Vd: 0.24
- smiles record: "COc1ncc(-c2ccn3ncc(C#CC(C)(C)O)c3c2)cc1NS(=O)(=O)c1ccc(F)cc1F"
  units symbol: "L/kg"
  Vd: 0.28
- smiles record: "CC#Cc1cnn2ccc(-c3cnc(OC)c(NS(=O)(=O)c4ccc(F)cc4F)c3)nc12"
  units symbol: "L/kg"
  Vd: 0.63

====

# assay system: PI3K (p110δ/p85α) (h) (Homo sapiens, UniProt O00329)
# Sequence (O00329 whole entry): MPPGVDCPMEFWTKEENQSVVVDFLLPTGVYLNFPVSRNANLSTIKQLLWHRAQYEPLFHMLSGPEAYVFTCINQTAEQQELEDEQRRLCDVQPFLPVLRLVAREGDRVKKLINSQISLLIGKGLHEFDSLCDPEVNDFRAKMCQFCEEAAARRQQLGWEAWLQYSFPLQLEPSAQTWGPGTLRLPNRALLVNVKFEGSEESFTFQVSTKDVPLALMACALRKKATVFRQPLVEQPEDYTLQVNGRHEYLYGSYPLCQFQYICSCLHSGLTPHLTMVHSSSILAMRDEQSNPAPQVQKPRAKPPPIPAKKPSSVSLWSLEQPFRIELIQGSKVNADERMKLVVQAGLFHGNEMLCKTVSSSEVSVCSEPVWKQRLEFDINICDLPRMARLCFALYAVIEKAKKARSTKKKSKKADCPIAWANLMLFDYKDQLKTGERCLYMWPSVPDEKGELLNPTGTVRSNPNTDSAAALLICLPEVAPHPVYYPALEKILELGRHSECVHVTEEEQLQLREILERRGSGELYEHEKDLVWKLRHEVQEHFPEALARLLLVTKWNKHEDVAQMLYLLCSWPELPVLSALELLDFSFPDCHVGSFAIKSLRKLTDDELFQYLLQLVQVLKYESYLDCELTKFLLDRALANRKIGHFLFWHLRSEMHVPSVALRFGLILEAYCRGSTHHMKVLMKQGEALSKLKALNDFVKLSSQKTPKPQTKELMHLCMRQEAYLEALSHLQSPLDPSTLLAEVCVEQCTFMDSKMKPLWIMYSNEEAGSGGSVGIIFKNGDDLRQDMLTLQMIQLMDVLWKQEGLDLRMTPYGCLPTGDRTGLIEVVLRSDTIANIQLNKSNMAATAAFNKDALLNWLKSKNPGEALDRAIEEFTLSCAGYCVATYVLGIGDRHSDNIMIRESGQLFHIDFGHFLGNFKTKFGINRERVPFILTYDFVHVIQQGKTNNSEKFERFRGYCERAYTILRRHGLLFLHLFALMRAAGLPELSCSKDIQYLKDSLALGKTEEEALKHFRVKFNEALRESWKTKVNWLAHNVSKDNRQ
# Sequence (P27986 whole entry partner): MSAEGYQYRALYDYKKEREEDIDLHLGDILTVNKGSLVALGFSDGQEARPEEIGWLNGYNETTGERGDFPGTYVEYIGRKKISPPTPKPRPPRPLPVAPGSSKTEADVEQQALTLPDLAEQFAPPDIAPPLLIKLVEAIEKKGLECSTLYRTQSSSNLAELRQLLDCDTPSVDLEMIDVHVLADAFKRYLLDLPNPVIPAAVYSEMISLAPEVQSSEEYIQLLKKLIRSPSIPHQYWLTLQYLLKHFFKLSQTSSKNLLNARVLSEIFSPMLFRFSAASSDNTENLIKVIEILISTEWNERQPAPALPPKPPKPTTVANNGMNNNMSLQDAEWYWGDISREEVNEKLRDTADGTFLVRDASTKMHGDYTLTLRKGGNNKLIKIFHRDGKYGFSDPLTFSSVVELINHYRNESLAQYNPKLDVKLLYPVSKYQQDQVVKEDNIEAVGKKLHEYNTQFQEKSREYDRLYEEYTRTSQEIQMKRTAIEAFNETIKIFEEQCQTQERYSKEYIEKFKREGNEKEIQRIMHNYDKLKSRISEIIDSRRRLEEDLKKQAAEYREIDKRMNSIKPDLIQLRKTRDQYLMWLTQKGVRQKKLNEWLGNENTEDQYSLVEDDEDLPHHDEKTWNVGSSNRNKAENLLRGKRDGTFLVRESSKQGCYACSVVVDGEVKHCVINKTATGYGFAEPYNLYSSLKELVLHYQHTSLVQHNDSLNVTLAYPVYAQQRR
# method summary: PI3K (p110δ/p85α) (h) non-radioactive (HTRF) assay
Overview of reported IC50 across a group of compounds:
measurement type: IC50 (nM)

- compound: "COc1ncc(-c2ccn3ncc(C#CCO)c3n2)cc1NS(=O)(=O)c1ccc(F)cc1F"
  units symbol: "nM"
  measurement: 5
- compound: "COc1ncc(-c2ccn3ncc(C#CCO)c3c2)cc1NS(=O)(=O)c1ccc(F)cc1F"
  units symbol: "nM"
  measurement: 1
- compound: "COc1ncc(-c2ccn3ncc(C#CC(C)O)c3n2)cc1NS(=O)(=O)c1ccc(F)cc1F (centres unmarked)"
  units symbol: "nM"
  measurement: 1
- compound: "COc1ncc(-c2ccn3ncc(C#N)c3n2)cc1NS(=O)(=O)c1ccc(F)cc1F"
  units symbol: "nM"
  measurement: 5
- compound: "COc1ncc(-c2ccn3ncc(C#N)c3c2)cc1NS(=O)(=O)c1ccc(F)cc1F"
  units symbol: "nM"
  measurement: 2

====

# method summary: Pharmacokinetic profiles in rats
# Assay type: in vivo
# run parameters: rat, plasma, iv dosing, 2 mg/kg
# Experimental: The compounds disclosed herein are assessed in pharmacokinetic studies in mice, rats, dogs or monkeys. The compounds are administered as a water solution, 2% HPMC+1% TWEEN®80 in water solution, 5% DMSO+5% solutol in saline, 4% MC suspension or capsule. For the intravenous administration, the animals are generally given at 1 or 2 mg/kg dose. […] The plasma solutions are collected and stored at −20° C. or −70° C. until analyzed by LC/MS/MS as described above.
Overview of reported AUC(0-t) across a group of compounds:
measurement type: AUC(0-t) (ng·h/mL)

- compound: "COc1ncc(-c2ccn3ncc(C#N)c3n2)cc1NS(=O)(=O)c1ccc(F)cc1F"
  measurement type: "AUC(0-t)"
  units symbol: "ng·h/mL"
  measurement: 7720
- compound: "COc1ncc(-c2ccn3ncc(C#CCO)c3n2)cc1NS(=O)(=O)c1ccc(F)cc1F"
  measurement type: "AUC(0-t)"
  units symbol: "ng·h/mL"
  measurement: 12100
- compound: "COc1ncc(-c2ccn3ncc(C#CCO)c3c2)cc1NS(=O)(=O)c1ccc(F)cc1F"
  measurement type: "AUC(0-t)"
  units symbol: "ng·h/mL"
  measurement: 7350
- compound: "COc1ncc(-c2ccn3ncc(C#CC(C)O)c3n2)cc1NS(=O)(=O)c1ccc(F)cc1F (centres unmarked)"
  measurement type: "AUC(0-t)"
  units symbol: "ng·h/mL"
  measurement: 35200
- compound: "COc1ncc(-c2ccn3ncc(C#N)c3c2)cc1NS(=O)(=O)c1ccc(F)cc1F"
  measurement type: "AUC(0-t)"
  units symbol: "ng·h/mL"
  measurement: 7070

meta.source: patent US9573953B2
